Can you tell me pIC50 for the items I'm about to list?
# Test system: mitochondria obtained from hepatocytes
# test.description: Inhibitory activity on calcium-induced mitochondrial swelling (absorbance 520 nm)
# protocol.conditions: calcium-induced swelling of extracted mitochondria; read-out: Test Example 4: inhibiting mitochondrial swelling (IC50)
pIC50: −log10 of the molar value.

Study these solved cases before continuing.
{"compound": "CCc1ccc(C(C#N)=Cc2ccccc2C(=O)O)cc1", "target.or.test.system": "mitochondria obtained from hepatocytes", "pIC50": "3.30 to 4.30"}
{"compound": "N#CC(=Cc1ccccc1OCC1CC1)c1ccc([N+](=O)[O-])cc1", "target.or.test.system": "mitochondria obtained from hepatocytes", "pIC50": "4.30 to 5.30"}
{"compound": "CCC(C)c1ccc(C(C#N)=Cc2ccccc2C(=O)O)cc1 (centres unmarked)", "target.or.test.system": "mitochondria obtained from hepatocytes", "pIC50": "4.30 to 5.30"}
{"compound": "N#CC(=Cc1ccccc1C(=O)O)c1ccc(Cc2ccccc2)cc1", "target.or.test.system": "mitochondria obtained from hepatocytes", "pIC50": "> 5.30"}

Proceeding to the next compound to report its pIC50.
Exercise: Lab note: need pIC50 for CCCCc1ccc(C(C#N)=Cc2ccccc2C(=O)O)cc1 on mitochondria obtained from hepatocytes, anyone have it?
Key: 4.30 to 5.30
